Quick list: combination Emax per entry.
- System: KALS-1 (Glioblastoma)
- assay.procedure: combination Emax (second highest fraction inhibited in the dose matrix, 72 h); higher = more inhibition; extreme values may be limits of the assay
readout.name: combination Emax

{"compound": "C[C@@H]1COCCN1c1cc(C2([S@](C)(=N)=O)CC2)nc(-c2ccnc3[nH]ccc23)n1 [AZD6738] + C1CC(C1)(C(=O)[O-])C(=O)[O-].N.N.[Pt+2] [Carboplatin] (first compound max 10 µM, 7x7, partner max 10 µM)", "subject.of.test": "KALS-1 (Glioblastoma)", "measured.number": 0.802}
{"compound": "CN(C)CCCOc1ccc(-c2ccc3ncc4c(c3c2)n(C2CCOCC2)c(=O)n4C)cn1 [AZD0156] + C=CCn1c(=O)c2cnc(Nc3ccc(N4CCN(C)CC4)cc3)nc2n1-c1cccc(C(C)(C)O)n1 [AZD1775] (first compound max 1 µM, partner max 1 µM)", "subject.of.test": "KALS-1 (Glioblastoma)", "measured.number": 0.855}
{"compound": "C[C@@H](Oc1cc(-c2cnn(C3CCNCC3)c2)cnc1N)c1c(Cl)ccc(F)c1Cl [Crizotinib] + Cn1cnc2c(F)c(Nc3ccc(Br)cc3Cl)c(C(=O)NOCCO)cc21 [Selumetinib] (first compound max 10 µM, 7x7, partner max 10 µM)", "subject.of.test": "KALS-1 (Glioblastoma)", "measured.number": 0.538}
{"compound": "COc1cccc2c1C(=O)c1c(O)c3c(c(O)c1C2=O)C[C@@](O)(C(=O)CO)C[C@@H]3O[C@H]1C[C@H](N)[C@H](O)[C@H](C)O1 [Doxorubicin] + Cc1cc2ncnn2cc1Nc1ncc2c(n1)n(C1CCOCC1)c(=O)n2C [AZD7648] (first compound max 1 µM, 7x7, partner max 10 µM)", "subject.of.test": "KALS-1 (Glioblastoma)", "measured.number": 0.832}
